target: UniProt:P11362; test: Kinase assay, binding constants (Kd), kinase-tagged T7 phage, qPCR
Sequence (P11362 22-822): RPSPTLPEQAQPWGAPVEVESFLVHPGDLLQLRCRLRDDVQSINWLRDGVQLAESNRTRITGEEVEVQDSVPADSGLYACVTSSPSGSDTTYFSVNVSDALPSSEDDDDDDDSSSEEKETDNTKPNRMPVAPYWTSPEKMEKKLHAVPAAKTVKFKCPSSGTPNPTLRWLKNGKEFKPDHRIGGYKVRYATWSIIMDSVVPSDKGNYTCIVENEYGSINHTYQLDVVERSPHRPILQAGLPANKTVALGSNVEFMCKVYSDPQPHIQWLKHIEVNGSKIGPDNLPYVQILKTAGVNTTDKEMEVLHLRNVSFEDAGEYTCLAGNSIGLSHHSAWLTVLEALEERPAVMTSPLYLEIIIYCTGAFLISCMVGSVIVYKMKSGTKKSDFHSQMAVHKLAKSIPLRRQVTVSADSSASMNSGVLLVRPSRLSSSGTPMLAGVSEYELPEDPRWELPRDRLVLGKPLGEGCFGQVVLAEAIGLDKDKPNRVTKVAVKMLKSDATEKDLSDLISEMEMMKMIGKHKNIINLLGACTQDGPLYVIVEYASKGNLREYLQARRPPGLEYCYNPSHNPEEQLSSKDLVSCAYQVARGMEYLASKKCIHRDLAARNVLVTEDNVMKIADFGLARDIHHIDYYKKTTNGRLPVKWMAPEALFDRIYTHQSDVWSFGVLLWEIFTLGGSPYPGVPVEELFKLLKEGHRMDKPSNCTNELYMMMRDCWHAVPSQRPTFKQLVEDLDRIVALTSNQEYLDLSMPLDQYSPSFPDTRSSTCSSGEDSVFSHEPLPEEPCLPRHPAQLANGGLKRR
# key: entry, value: Kd

C[C@@H](Oc1ccc2[nH]nc(-c3cnn(C4CCN(C(=O)CCN(C)C)CC4)c3)c2c1)c1c(Cl)cncc1Cl	1 to 20 nM
C[C@@H](Oc1ccc2[nH]nc(-c3cnn(C4CCN(C(=O)N(C)C)CC4)c3)c2c1)c1c(Cl)cncc1Cl	1 to 20 nM
C[C@@H](Oc1ccc2[nH]nc(-c3ccc(N4CC5(CNC5)C4)nc3)c2c1)c1cc(F)cc(F)c1	20 to 100 nM
C[C@@H](Oc1ccc2[nH]nc(-c3ccc(N4CCN(S(C)(=O)=O)C5(CC5)C4)nc3)c2c1)c1c(Cl)cncc1Cl	20 to 100 nM
Cc1ncc(Cl)c([C@@H](C)Oc2cc3c(-c4cnc(N5CC6(C5)CN(S(C)(=O)=O)C6)c(F)c4)n[nH]c3cc2Cl)c1Cl	20 to 100 nM

For this compound ( C[C@@H](Oc1ccc2[nH]nc(-c3cnc(N4CCC4)c(C#N)c3)c2c1)c1c(Cl)cncc1Cl ), measured Kd is > 300 nM

The compound identified as C[C@@H](Oc1ccc2[nH]nc(-c3cnc(N4CCNCC4)c(F)c3)c2c1)c1c(Cl)cncc1Cl registered its Kd at 1 to 20 nM

Entry under test: COc1cc2[nH]nc(-c3cnc(N4CC5(C4)CN(S(C)(=O)=O)C5)nc3)c2cc1O[C@H](C)c1c(Cl)cnc(C)c1Cl . Its Kd was 1 to 20 nM

Input C[C@@H](Oc1ccc2[nH]nc(-c3cnc(N4CCC(O)CC4)c(C#N)c3)c2c1)c1c(Cl)cncc1Cl . Output Kd: 20 to 100 nM

Entry COC1CC2(C1)CN(c1ccc(-c3n[nH]c4ccc(O[C@H](C)c5c(Cl)cnc(C)c5Cl)cc34)cn1)C2 ; Kd = 20 to 100 nM

Please fill in: Kd reported for Cc1cnnc(C)c1[C@@H](C)Oc1ccc2[nH]nc(-c3ccc(N4CC5(CCCN(C(=O)OC(C)C)C5)C4)nc3)c2c1 = 20 to 100 nM

Kindly note the recorded Kd for CCOC(=O)N1CCCC2(C1)CN(c1ccc(-c3n[nH]c4ccc(O[C@H](C)c5c(C)cnnc5C)cc34)cn1)C2 , which is 20 to 100 nM

Value of Kd reported for the compound C[C@@H]1CCN1c1ncc(-c2n[nH]c3cc(Cl)c(O[C@H](C)c4c(Cl)cncc4Cl)cc23)cc1F is > 300 nM

Per the record, C[C@H](Oc1ccc2[nH]nc(-c3cnc(N4CC(O)C4)c(C#N)c3)c2c1)c1c(Cl)cnc(F)c1Cl has Kd of > 300 nM

###

target: FGFR3-BAIAP2L1 Ba/F3 cells (Homo sapiens, UniProt P22607); assay: Ba/F3 cell viability assay (CellTiter-Glo 2.0), FGFR3-BAIAP2L1 Ba/F3; assay type: cell-based; details: FGFR3 > FGFR1 selectivity ratio in Ba/F3 FGFR fusion cell based assays
Sequence (P22607 23-806 limits assumed, change not shown): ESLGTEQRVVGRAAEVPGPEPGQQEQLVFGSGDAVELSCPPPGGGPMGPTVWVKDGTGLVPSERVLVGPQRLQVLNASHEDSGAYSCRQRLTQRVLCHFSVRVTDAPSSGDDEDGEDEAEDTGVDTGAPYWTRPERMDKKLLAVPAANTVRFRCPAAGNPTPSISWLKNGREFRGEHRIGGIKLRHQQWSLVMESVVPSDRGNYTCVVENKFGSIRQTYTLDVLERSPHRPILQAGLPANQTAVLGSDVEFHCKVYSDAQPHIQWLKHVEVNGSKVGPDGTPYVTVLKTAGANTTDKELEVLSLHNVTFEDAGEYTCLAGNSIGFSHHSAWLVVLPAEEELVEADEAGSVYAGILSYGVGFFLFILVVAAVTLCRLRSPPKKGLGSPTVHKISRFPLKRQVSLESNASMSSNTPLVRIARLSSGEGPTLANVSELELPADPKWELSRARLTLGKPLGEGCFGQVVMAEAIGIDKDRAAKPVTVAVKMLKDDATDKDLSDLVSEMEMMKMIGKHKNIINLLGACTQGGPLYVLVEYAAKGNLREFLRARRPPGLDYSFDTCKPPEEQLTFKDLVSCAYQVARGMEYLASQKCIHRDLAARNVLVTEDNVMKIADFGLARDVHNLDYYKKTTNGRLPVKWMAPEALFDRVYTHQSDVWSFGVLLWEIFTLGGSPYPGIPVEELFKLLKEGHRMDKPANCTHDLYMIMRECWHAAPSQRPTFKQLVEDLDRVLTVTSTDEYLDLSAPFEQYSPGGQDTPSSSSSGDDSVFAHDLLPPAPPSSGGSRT
MEASURED_ENDPOINT: Ba/F3 FGFR1/FGFR3 Selectivity
Note: the reply should be a number with no unit written.

Solved entries:
C[C@@H](Oc1ccc2[nH]nc(-c3cnc(N4CCCN(C(N)=O)CC4)nc3)c2c1)c1c(Cl)cncc1Cl	8
C[C@@H](Oc1ccc2[nH]nc(-c3cnc(N4CC5(CCCS(=O)(=O)C5)C4)nc3)c2c1)c1c(Cl)cncc1Cl	6
C[C@@H](Oc1ccc2[nH]nc(-c3cnc(N4CCCN(C5COC5)CC4)nc3)c2c1)c1c(Cl)cncc1Cl	13
Cc1ncc(Cl)c([C@@H](C)Oc2ccc3[nH]nc(-c4cnn(C5CCN(C6CCC6)CC5)c4)c3c2)c1Cl	14
CCS(=O)(=O)N1CC2(CN(c3ccc(-c4n[nH]c5ccc(O[C@H](C)c6c(Cl)cncc6Cl)cc45)cn3)C2)C1	17
C[C@@H](Oc1ccc2[nH]nc(-c3ccc(N4CCC5(CC4)CN(C)CC(=O)N5)nc3)c2c1)c1c(Cl)cncc1Cl	15

# next molecule below
Lab entry: FGFR3-BAIAP2L1 Ba/F3 cells (Homo sapiens, UniProt P22607) assay, molecule CCOC(=O)N1CCC2(CC1)CN(c1ccc(-c3n[nH]c4ccc(O[C@H](C)c5c(Cl)cncc5Cl)cc34)cn1)C2 , Ba/F3 FGFR1/FGFR3 Selectivity = 12

Taken from patent US20240109865A1.
